tested on: K4 kissing-loop RNA reporter; experiment: apparent KD of K4 kissing-loop reporter; higher = weaker reporter binding; settings: Eterna round: R107; input ligand: arginine 13.2 mM
Reported apparent KD of K4 kissing-loop reporter by item:

| seq | assayedTarget | apparent KD of K4 kissing-loop reporter (nM) |
| --- | --- | --- |
| UGAUAGGACAGAAGGAGCGGAAGUGAUGUUUCCUAAAGGAUAAAGGUGUCAAAGACACCCUUCCAGGUAGGUCGCUGUCCUAUCU [ArgBX 16 #Palindromic #SwitchBubble #StaticStem] | K4 kissing-loop RNA reporter | 923 |
| AUUUAAUUAACUGAUACCAGACUUUAAGUAAUUAUUAAAACUAGUGAUGUUAGUUUAUCUGUCCCUUGGCAGCAGUUUCUACUUA [JR_Nu_ExcTheophyB_Sub020] | K4 kissing-loop RNA reporter | 136 |
| UGUCUACCGGGAAGGAGCGUGAAUGAUAAUGGAUAUAGUGAUGUUAUAUAUACGAACGAAUCGCAGGUAGGUCGCCCGGAUCCCU [SSArgB.W] | K4 kissing-loop RNA reporter | 419 |
| GCUAUGGUUGGAAGGAGCGUUGAAUUGUUGGUAAGAGUGAUGUUCGAUAGUGGAUAGUUGUAGCAGGUAGGUCGCCAACUAUAGC [KL-Arg B27] | K4 kissing-loop RNA reporter | 367 |
| ACGUGCACCAGUGAUGUUGGAAAAUAUGAAGGAGCGGGUGAAAGCCCAGGUAGGUCGCAUAAUAGCACGAGCCACGAAAGUGGCA | K4 kissing-loop RNA reporter | 175 |
| ACACGUGUGGCAGGAUAUCGGGCUGUGGAUCGGCUGGUUGCUUAUUCUCGACCAGUGAUGUUGGUACGAGAAGGGCUACCCAGAA [Diorce] | K4 kissing-loop RNA reporter | 113 |
| AGCCGAAAGGCGAGUGCUGUCACUCCGGAAGGAGCGGCGAAAACGCCAGGUAGGUCGCCGGAGUGAUGUUCCGGUGCAGCACUCA [Omei KL Arginine A Exc B v2] | K4 kissing-loop RNA reporter | 410 |
| AAGUCAUAGGCAGGAUAUGCAUAGUAAUAAGGCCAUAUAUACGUAUAGAGUGAUGUUUUGUACCAGGCAGAAGGGCUACAUCAGU [FMN B Excl V7 (+3A)] | K4 kissing-loop RNA reporter | 506 |
| AAAAUAAUCCAGUGAUGUUGGUAUUCAGAUACCAGCGACGAAAGUCGCCCUUGGCAGCUGUGGACGUACAAAAUAAGUACGUCCU | K4 kissing-loop RNA reporter | 657 |
| UGUAAUUCGGCGGCCGCCACUGACCAUAGCCUUCGAUGGCCAGUGAUGUUGGCCUCUGGCUCUAACAGGACCGGGCCGAAUUGCG [Sotetiqu] | K4 kissing-loop RNA reporter | 133 |
| ACACUUUACGUAGGAUAUGCGACGAGUGAUGUUCGUCAGGCGGCUUGAGCUUAAACAGGCCGUCUAGCAGAAGGACGGGCAGUGU [Diorsodi] | K4 kissing-loop RNA reporter | 143 |
| GCAUGGAUCGCAGGAUAUAGAUCCGUGAGUGAAUUCUUGCCAGUGAGGAGUGAUGUUCCUCAUGGGCUAGAAGGGCGAUCCAUGC | K4 kissing-loop RNA reporter | 80.8 |
| GUAGACGUACCUUCAGUGAUGUUGAAGGAUACCAGAUGUUACCACAUCCCUUGGCAGCCUUGGGAUAACAGUGAGUUGGAAUAUG [Usrite] | K4 kissing-loop RNA reporter | 137 |

###

test system: MS2 coat protein; assay: apparent KD of MS2 coat protein; designed switch direction (-1 OFF switch, 1 ON switch): -1; higher = weaker reporter binding; settings: input ligand: FMN 200 uM
reportedMetric: apparent KD of MS2 coat protein (nM)

| seq | assayedTarget | reportedMetric | assayValue |
| --- | --- | --- | --- |
| AAUAAUAAAGUCAGGAUAUCUAGAGCCUCGGCUCUAGAGAAGGGACAUGAGGAUCACCCAUGUCACUCAAUAAU [BmEx4/3-D2] (Eterna round: R97, puzzle: Brourd's mod of Exclusion 4) | MS2 coat protein | apparent KD of MS2 coat protein | 20.2 |
| ACAAGCUCUGUGGGUGGUGACAUGAGGAUCACCCAUGUUUUGCUCGUCUUGUGGGCCCGGGCCCGCGGCCCGGGCCC [-41.4, -70.3, A 12%] (Eterna round: R97, puzzle: Sensor, turn-off variant 1) | MS2 coat protein | apparent KD of MS2 coat protein | 516 |
| AGAUGGAUUGCUAGAAAACUAGUAAUUCAUCAAUCAAGCACAUGAGGAUCACCCAUGUCUUAGAGUACGUGAGUACA [JL gull wing 9] (Eterna round: R96, puzzle: Sensor v2, turn-off variant 2) | MS2 coat protein | apparent KD of MS2 coat protein | 12.8 |
| UGAUGACAUGAGGAUCACCCAUGUCAGGAUAUUGAUCGUGAUCGGAAAUGAUCGUGAUCGAGAAGGGACUGUCG [-24.4, -21.4 kcal, A 28%, 2] (Eterna round: R97, puzzle: Exclusion 1) | MS2 coat protein | apparent KD of MS2 coat protein | 31.8 |

###

tested on: MS2 coat protein; test: apparent KD of MS2 coat protein; designed switch direction (-1 OFF switch, 1 ON switch): 1; higher = weaker reporter binding; details: Eterna round: R95; input ligand: FMN 200 uM

| seq | apparent KD of MS2 coat protein, nM |
| --- | --- |
| UGUGUCAUAGGUUUUUUAGCUCGUCUGAUACAUGAGGAUCACCCAUGUUAUAGCCCUGUGCUUGCGCAGGGCUGAGG [JL shm-2.xx] (puzzle: Sensor for hsa-mir-208a) | 50.2 |
| UGUCCAGCCUGAGCUGGACAAAAGCAUGUACAUGAGGAUCACCCAUGUUCAUGUACAAGCUUUUUGCUCGUCUUAUU [salish99_208a_r3_048] (puzzle: Sensor for hsa-mir-208a) | 465 |
| GUUAUACAUGAGGAUCACCCAUGUCAAUGUAGUCGAGGAUAUGGGCAGCUAUGUAGCGUACUAGAAGGCGAAGAGU [JL-ss1-3.13 ViennaUCT mod] (puzzle: Same State 1) | 68.4 |
| GGAGCCGGCACCGAGGAUAUUCAUAUUAAAACAUGAGGAUCACCCAUGUAGGCCAGAAGGCCUUGGGAGAAGGCGGAUCGGCUCA [Xeonanis - 6] (puzzle: Same State 2) | 29.5 |
| GUAGAUAUAGAGGAGGAUAUUCAAUGAGGAACAUGAGGAUCACCCAUGUAAGAGAGAGAUGAUGAGAAGAAGGCUUAGAGGGAUG [Altered State 2-3 - Jieux - Same State 2] (puzzle: Same State 2) | 46.5 |

###

Catalogue of apparent KD of K4 kissing-loop reporter readings, one per entry.
test system: K4 kissing-loop RNA reporter; experiment: apparent KD of K4 kissing-loop reporter; higher = weaker reporter binding; details: Eterna round: R107; input ligand: none;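 note: bound reporter read as fluorescence of individual clusters on recovered sequencing chips by microscopy, with normalized cluster intensities fitted with a binding model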

| seq | apparent KD of K4 kissing-loop reporter |
| --- | --- |
| GUAUCGCUAGGAGGAUAUUUCAAUUCGUCAAUAAAUGGUGAUACGGAGUGAUGUUCCGAUUUACGGAAAGAAGGCCUAGUGAUAC [FMN B 7] | 298 nM |
| AAAGUUGAUGAGUUGGGUAUGUGUUCCGAAGGAGCGAGAAUUAUCUCAGGUAGGUCGCGGAAGAUGAGUGAUGUUCAUCUAUAAA [KL-XArg-A8 #analogue] | 162 nM |
| UCCACGCUUCGAGGAUAUCGGAUUAGAGUGAUGUUCUAAAGACGCCCAGUGAUGUUGGAUGCGAUACGAGAAGGCGGUGGCGUGU [Same State FMN B GF6] | 244 nM |
| GAUCUGAACGAAAGUUCGGAUCAGUCCGAUACCAGUAUGGAUUCAUACCCUUGGCAGCGGUUAUCUGCUAUGGAGUGAUGUUCCA [Theophylline A K4 11] | 483 nM |
| GGAUAGGAUAGAGGAUAUGGCUUACGCAGAAAUAACUUGUUGUGUUUAUCCAUAGGGAGUGAUGUUCCAGAAGGCUGUCCUAUCG [MatMod 18 - Jieux - Exclusion - FMN B] | 266 nM |

###

tested on: MS2 coat protein; assay: apparent KD of MS2 coat protein; designed switch direction (-1 OFF switch, 1 ON switch): -1; higher = weaker reporter binding; settings: input ligand: none
// label = rule met if apparent KD of MS2 coat protein is not less than 50 nM, otherwise rule not met

| seq | assayedTarget | assignedCategory |
| --- | --- | --- |
| ACAAGCUUAAUCAGUAUGAACAUGAGGAUCACCCAUGUAAAAGGGAAUACUAUUGGGUUUUUUAUAGCUCGUCUUAU [JR_STOV1_Sub018] (Eterna round: R97, puzzle: Sensor, turn-off variant 1) | MS2 coat protein | rule not met |
| GGUCCACAUGAGGAUCACCCAUGUUAGGAUAUCUCCUGCCUCCUAAAUGGAAGCAGACAGAGAAGGAACAUCAA [Soanatra] (Eterna round: R96, puzzle: Exclusion 1) | MS2 coat protein | rule not met |
| GUGUGACAUGAGGAUCACCCAUGUGAGGAUAUUUAUGUUUGGUUGUUUAGUUGGGCGUGGAGAAGGCGCGUGCG [19% As] (Eterna round: R97, puzzle: Exclusion 1) | MS2 coat protein | rule met |
| CUUUUGUGAGGAUAUUAGUAGUAAAUGAAUAAAAUUAUUACUAAGAAGGCACAUGAGGAUCACCCAUGUUCCUC [Mat - Exclusion 4 - Eli Mod - D1] (Eterna round: R97, puzzle: Exclusion 4) | MS2 coat protein | rule met |
| GUUAUGUCAGGAUAUGCUAAUGAUGAGUGCUCAGACAUGAUGCAGAAGGGACAUGAGGAUCACCCAUGUACUAA [EX4 #11] (Eterna round: R97, puzzle: Exclusion 4) | MS2 coat protein | rule not met |
| GGGCCCGGUGUGAGGAUAUGCUCGGGUAAAUCUGGGUAGAAGGCACAUGAGGAUCACCCAUGUAAGCCGGGCCC [-34.4, -32.3 kcal, A 23%, 7bis-0] (Eterna round: R97, puzzle: Brourd's mod of Exclusion 4) | MS2 coat protein | rule not met |
| UAGCAGAGAGGAUAUACAUUCAUCACCCGCGCAUCAUGCGCACAUGAGGAUCACCCAUGUAGAAGGCUCGUGCC [EX2 C.27] (Eterna round: R97, puzzle: Exclusion 2) | MS2 coat protein | rule not met |
| GGGCUUCGAGUCAGGAUAUAAGGCCGCUGGCCCAUUUAGAAGGGACUUGAGGAUCACCCAAGUCACCACGGACG [Geceisbi] (Eterna round: R97, puzzle: Brourd's mod of Exclusion 4) | MS2 coat protein | rule not met |
| AUCAAGGGAGGAUAUACAGUGAACAGUACUAGUCAGGCGGCACAUGAGGAUCACCCAUGUAGAAGGCCCAUGAU [Eternabot (L1) Solution 70] (Eterna round: R97, puzzle: Exclusion 2) | MS2 coat protein | rule not met |
| AAUAUACAUGUAGGAUAUCUGCACGAUUAGUGCAGAGAAGGACAUGAGGAUCACCCAUGUAAUUAAGAUCAAUUAUUAAAUAUU [ENG1/3-B1] (Eterna round: R96, puzzle: Exclusion NG 1) | MS2 coat protein | rule not met |
| GACCUGUGAGGAUAUUAUUAAAGGCCAAGUUAGGCCUUAAUUGAGAAGGCACAUGAGGAUCACCCAUGUUUGAC [Eternabot (L2) Solution 55] (Eterna round: R97, puzzle: Exclusion 4) | MS2 coat protein | rule not met |
